Listed below: AC50 values for each entry.
# Target under test: Sodium channel protein type 1 subunit alpha (Rattus norvegicus) (UniProt P04774)
# Method notes: NVS_IC_rNaCh_site2: NovaScreen (NVS) Ion Channel Assay for rat Sodium Channel, Site 2 (NaCh) (AID 2283322);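 further: hit means loss of radioligand binding signal relative to DMSO so AC50 marks displacement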
Inconclusive results are not listed. The source made the active and inactive calls. How the source made its calls: active means hit-call score of the fitted dose curve at least 0.9, where 1 is the maximum; inconclusive means response in the unintended direction; inactive means score below 0.9.

Below: 6 compounds and their reported AC50.
CCOC(=O)O[C@H](C)OC(=O)c1ccc2c(c1)cc(C(=O)NC1CCN(C(C)C)CC1)n2Cc1cc(-c2ccc(Cl)s2)on1    9.62 µM (active)
COc1cc(C(=O)NC2CCN(C)CC2)ccc1Nc1ncc2c(n1)N(C1CCCC1)CC(F)(F)C(=O)N2C    2.03 µM (active)
O=C1c2ccccc2C(=O)N1CCc1noc(-c2ccc(CN3CCCCCC3)s2)n1    13.4 µM (active)
Cc1cc(F)ccc1-c1cc(N2CC[C@@H](O)[C@H]2CO)ncc1N(C)C(=O)C(C)(C)c1cc(C(F)(F)F)cc(C(F)(F)F)c1    5.99 µM (active)
Clc1cc(Cl)c2c(c1)N=C1CCCCCN1C2    6.64 µM (active)
CN(C)c1ccc(C(=C2C=CC(=[N+](C)C)C=C2)c2ccc(N(C)C)cc2)cc1    0.263 µM (active)

Query: Please give the measured AC50 for this compound: `CN(C)C(=O)C1(N2CCCCC2)CCN(CC[C@@]2(c3ccc(Cl)c(Cl)c3)CN(C(=O)c3ccccc3)CCO2)CC1`
Result: 0.822 µM (active)

Query: Quick one: `CCCCCCCCN(C)CCCCCCCC`
Result: 11.8 µM (active)

Query: Would you kindly repeat that for `CCN(Cc1cccnc1)C(=O)c1cccc(Cl)c1[C@]1(C)C(=O)N(Cc2ccc(OC)cc2OC)c2ccc(Cl)cc21` ?
Result: 17.5 µM (active)

Query: Input `NC(=O)c1nc(-c2cccc(-c3cc(F)ccc3OCC(F)(F)C(F)(F)F)c2)n[nH]1`
Result: 0.574 µM (active)

###

# Read-out: Transforming Growth Factor (TGFB1), TGFB1 (gene 7040)
# Method notes: LTEA_HepaRG_TGFB1: Life Technologies and Expression Analysis (LTEA) Assay for Transforming Growth Factor (TGFB1) Transporter using HepaRG (AID 2283533)
# Study conditions: mRNA level, 48 h; actives raise or lower the signal
The source made the active and inactive calls. The calls were made as follows: active = hit-call score of the fitted dose curve at least 0.9, where 1 is the maximum; inactive = score below 0.9.
Log the outcome using a class from y (active), n (inactive)

Record excerpt, results attached:
O=C=NCCCCCCN=C=O    n
Cc1cc2c(cc1C(F)(F)F)N(C(=O)Nc1ccc(Oc3cccnc3C)nc1)CC2    n
O=C(O)c1ccccc1-n1cc(C(=O)O)c(=O)c2cc(Nc3c(F)cc(F)cc3Cl)c(Cl)cc21    n
CC(C)(C)c1cc(/C=C2\SC(N)=NC2=O)cc(C(C)(C)C)c1O    y
Cc1cccc2ccccc12    n
NCc1cccc(C2CCN(C(=O)c3ccc(C#Cc4ccccc4F)o3)CC2)c1    n
OCCO    n
O=C(O)Cc1cc(I)c(Oc2ccc(O)c(I)c2)c(I)c1    y

Query: Which outcome did this test record for the molecule `Clc1ccccc1C(c1ccccc1)(c1ccccc1)n1ccnc1` ?
Result: y

Query: Same thing, different molecule: `O=CCCCC=O`
Result: n

Query: Continue with `CCOC(=O)O[C@H](C)OC(=O)c1ccc2c(c1)cc(C(=O)NC1CCN(C(C)C)CC1)n2Cc1cc(-c2ccc(Cl)s2)on1`
Result: n

Query: Same question for `O=C(O)Cn1c(=O)n(Cc2ccc(Br)cc2F)c(=O)c2ccc(Cl)cc21` please.
Result: n

###

# Target under test: Type-1 angiotensin II receptor (Homo sapiens)
# Method notes: NVS_GPCR_hAT1: NovaScreen (NVS) G Protein-Coupled Receptor Assay for human Angiotensin II receptor type 1 (AT1) (AID 2283263)
Results filed as inconclusive are left out. Calls of active or inactive are those of the source. The calls were made as follows: active = hit-call score of the fitted dose curve at least 0.9, where 1 is the maximum; inconclusive = response in the unintended direction; inactive = score below 0.9.
Write down the outcome that applies. Available outcomes: y for active, n for inactive

Below are worked cases with known answers.
O=C1c2ccccc2C(=O)N1CCc1noc(-c2ccc(CN3CCCCCC3)s2)n1    y
CO[C@H]1/C=C/O[C@@]2(C)Oc3c(C)c(O)c4c(O)c(c(/C=N/N5CCN(C)CC5)c(O)c4c3C2=O)NC(=O)/C(C)=C\C=C\[C@H](C)[C@H](O)[C@@H](C)[C@@H](O)[C@@H](C)[C@H](OC(C)=O)[C@@H]1C    n

Query: Entry `CC(C)(C)c1csc(-c2cc3cc(OCc4ccccc4CC(=O)O)ccc3o2)n1` : call = ?
Result: n

Query: Consider next the compound `CN(C)C(=O)C1(N2CCCCC2)CCN(CC[C@@]2(c3ccc(Cl)c(Cl)c3)CN(C(=O)c3ccccc3)CCO2)CC1` in the same way.
Result: y

###

# Read-out: Tissue Factor, F3 (gene 2152)
# Method notes: BSK_CASM3C_TissueFactor: BioMAP Diversity Plus: CASM3C Assay for Tissue Factor Biomarker Activity (AID 2283052);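 further: cell surface tissue factor protein level read by ELISA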
# Study conditions: primary human coronary artery smooth muscle cells; actives raise or lower the signal
Calls of active or inactive are those of the source. Rule for the calls: active = hit-call score of the fitted dose curve at least 0.9, where 1 is the maximum; inactive = score below 0.9.
// classify into active, inactive

The following compounds have reported results that may help.
Cc1ccc(C(C)C)cc1    inactive
CC[C@H](NC(=O)c1cc(F)ccc1NS(=O)(=O)c1cccc2cccnc12)c1ccccc1    inactive
Clc1cc(Cl)c2c(c1)N=C1CCCCCN1C2    inactive
CC(C)(O)c1ccc(CNC(=O)c2cccnc2Oc2ccc3nonc3c2)cc1    inactive
O=CCCCC=O    inactive

Query: Per the records of this test, what outcome belongs to `Cc1ncc(CO)c(CO)c1O` ?
Result: inactive

Query: Queued: `NC(=O)c1nc(-c2cccc(-c3cc(F)ccc3OCC(F)(F)C(F)(F)F)c2)n[nH]1`
Result: inactive

Query: Another compound to check: `CC[C@@H]1C[C@H](N(Cc2cc(C(F)(F)F)cc(C(F)(F)F)c2)C(C)=O)c2cc(C(F)(F)F)ccc2N1C(=O)OC(C)C`
Result: inactive

Query: What do we get for `CC1=CC(=O)/C(=C(/C)O)C(=O)O1` ?
Result: inactive

###

# Method notes: ATG_M_19_TRANS: Attagene TRANS-FACTORIAL HepG2 Assay for M19 Transcription Factor (Internal Marker) (AID 2282974)
# Study conditions: HepG2 Attagene TRANS-FACTORIAL M19 internal marker reporter
Inconclusive results are not listed. Active and inactive are the calls of the source. Rule for the calls: active = hit-call score of the fitted dose curve at least 0.9, where 1 is the maximum; inconclusive = response in the unintended direction; inactive = score below 0.9.
Experimental readout: outcome

OC12N=C(c3ccccc3)SC1Cc1cc(Cl)ccc12 (configuration not stated)    inactive
C[C@]12CC[C@@H]3c4ccc(O)cc4CC[C@H]3[C@@H]1CCC2=O    inactive
CN1C(=O)N(c2ccccc2Br)Cc2cnc(Nc3ccc4c(c3)OCC(CO)O4)nc21 (configuration not stated)    inactive
CC(O)CC(C)(C)O (configuration not stated)    inactive
COc1ccc2cc(S(=O)(=O)N[C@H](CC(=O)N[C@H](Cc3ccc(CN4[C@H](C)CCC[C@@H]4C)cc3)C(=O)N(C)C(C)C)c3ccc4c(c3)OCO4)ccc2c1    inactive
CCCOC(=O)c1cc(O)c(O)c(O)c1    inactive
CCCCOC(=O)CC(CC(=O)OCCCC)(OC(C)=O)C(=O)OCCCC    inactive
O=c1c(-c2ccc(O)cc2)coc2cc(O)cc(O)c12    inactive
Cc1cc2c(cc1C(F)(F)F)N(C(=O)Nc1ccc(Oc3cccnc3C)nc1)CC2    inactive
Oc1ccccc1    inactive

Query: Any idea what its outcome is? The compound is `c1ccc(C[n+]2cccc3ccccc32)cc1`
Result: inactive

Query: `Cc1cc(F)ccc1-c1cc(N2CC[C@@H](O)[C@H]2CO)ncc1N(C)C(=O)C(C)(C)c1cc(C(F)(F)F)cc(C(F)(F)F)c1` ?
Result: inactive

Query: Try `NC(=O)c1nc(-c2cccc(-c3cc(F)ccc3OCC(F)(F)C(F)(F)F)c2)n[nH]1` next.
Result: inactive

Query: Query `O=C1O[C@H]([C@@H](O)CO)C(O)=C1O` next
Result: inactive

Query: # repeat for `CO[C@H]1/C=C/O[C@@]2(C)Oc3c(C)c(O)c4c(O)c(c(/C=N/N5CCN(C)CC5)c(O)c4c3C2=O)NC(=O)/C(C)=C\C=C\[C@H](C)[C@H](O)[C@@H](C)[C@@H](O)[C@@H](C)[C@H](OC(C)=O)[C@@H]1C`
Result: inactive

Query: How about this compound: `CCCCCc1ccc(N)cc1`
Result: inactive

###

# Method notes: BSK_LPS_PGE2: BioMAP Diversity Plus: LPS Assay for Prostaglandin E2 (PGE2) Biomarker Activity (AID 2283082)
# Study conditions: primary human HUVEC with PBMC; actives raise or lower the signal
# Method: BSK_LPS is a cell-based, multiplexed-readout assay that uses umbilical vein endothelium and peripheral blood mononuclear cells, a human vascular primary cell co-culture, with measurements taken at 24 hours after chemical dosing in a 96-well plate.BSK_LPS_PGE2 is an assay component measured in the BSK_LPS assay. It measures PGE2 antibody related to regulation of gene expression using ELISA technology.Data from the assay component BSK_LPS_PGE2 was analyzed into 1 assay endpoint. […]
Activity calls are given as the source filed them. How the source made its calls: active means hit-call score of the fitted dose curve at least 0.9, where 1 is the maximum; inactive means score below 0.9.
Outcomes you can answer with include only these: active, inactive

Query: # lookup: test call for `CCCCCCCCCCCO`
Result: inactive

Query: Input `CCCCCCCCN(C)CCCCCCCC`
Result: inactive

Query: One more molecule: `O=c1[nH]sc2ccccc12`
Result: active

Query: Thanks! And `O=C1O[C@H]([C@@H](O)CO)C(O)=C1O` ?
Result: inactive

Query: Field entry: `c1ccc2ccccc2c1`
Result: inactive
